experiment: DNA intercalators displacing acridine orange, dose response, artefact control for KSHV LANA DNA-binding inhibitor project, biochemical, fluorescence polarization, cherry-picked samples, set 2 (AID 504727); settings: Acridine orange-DNA displacement; series mostly up to 35 µM
Activity calls are given as the source filed them.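 How the source made its calls: active means fitted half-maximal concentration AC50 at or below ten times the highest valid tested dose, with signal falling as DNA is displaced (actives reach about 34 µM in these data); inconclusive means flat fit at moderate signal loss, or poor fit quality; inactive means the rest, including signal rising instead of falling.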

molecule | AC50
Cc1ccc(OCC(=O)O/N=C(\N)Cc2ccc([N+](=O)[O-])cc2)cc1C | inactive
CC(C)N(C(=S)Nc1cccnc1)c1ccccc1 | inactive
CCOC(=O)c1c(C)n(C)c2ccc(OCCN(C)C)cc12 | inactive
Cc1cccc(N2C(=O)c3cccc4c(N(C)CCO)ccc(c34)C2=O)c1 | inactive
CCOCCCn1c(SCC(=O)NC(C)(C)C)nc2ccccc2c1=O | inactive
Nc1ccc(-c2nc3ccc(C(=O)O)cc3s2)cc1 | inactive
Nc1ccc2nc3c(=O)n(C4CCCCC4)c(=O)[nH]c3nc2c1 | 3.19 µM (active)
Cc1cc(NC(=O)CCC(=O)N(CCC(C)C)C(C(=O)NC2CCCC2)c2cccnc2)no1 (stereo unspecified) | inactive
C/C(=N/NC(=O)c1ccncc1)c1cc2ccc(O)cc2oc1=O | 0.343 µM (active)
O=C(NC1CCCCC1)c1cc([N+](=O)[O-])ccc1N1CCOCC1 | inactive
NC(=S)N/N=C/c1ccc(-c2ccc([N+](=O)[O-])cc2)o1 | inactive
O=c1c2cc(O)c(O)cc2oc2cc(O)c(C3OC(CO)C(O)C(O)C3O)c(O)c12 (stereo unspecified) | inactive
O=C1CCCC2=C1C(c1ccc(O)c(O)c1)Nc1ccc3ncccc3c12 (stereo unspecified) | inactive
CNc1ccc2c3c(cccc13)C(=O)N(C)C2=O | 0.872 µM (active)
CCn1nc(-c2ccccc2)c2nc3ccccc3nc21 | 24.2 µM (active)
O=C(O)C1C2C=CC(CC2)C1C(=O)O (stereo unspecified) | inactive
CC1=[N+](C)N(c2ccccc2)C(=O)C1N=C/C=C/c1ccccc1 (stereo unspecified) | inactive
COC(=O)c1cccc(COC(=O)c2ccccc2NC(=O)c2ccco2)c1 | inactive
CCN(CC)CCN1C(=O)c2cccc3cc(N)cc(c23)C1=O | 17 µM (active)
CN(C)C(=O)c1ccc(NC(=O)COC(=O)C2(c3ccccc3)CCCC2)cc1 | inactive
CNc1c2cccc(C)c2nc2c(C(=O)NCCN(C)C)cccc12 | 6.16 µM (active)
CCN(C(=O)COC(=O)c1nc2nc(C)cc(C)n2n1)C1CCCCC1 | inactive
C=CCN1C(=O)/C(=c2\sc3nc(=O)c(Cc4ccccc4Cl)nn3c2=O)c2ccccc21 | inactive
Cc1cc2nc3c(=O)[nH]c(=O)[nH]c3nc2c([N+](=O)[O-])c1N | 2.41 µM (active)
NNC(=O)CC1=NNC(=O)C1 | inactive
COc1cccc(C2CC(=O)Nc3cc4c(cc32)CCC4)c1 (stereo unspecified) | inactive
Cc1noc(C)c1-c1nc(CSc2ccccc2)no1 | inactive
O=C(O)CN1C(=O)/C(=C\c2cc(Br)ccc2OCc2ccc([N+](=O)[O-])cc2)SC1=S | inactive
O=C(/C=N/NC(=O)c1ccc(Cl)cc1Cl)c1ccccc1 | inactive
CSc1ccc(/C=N/Nc2cccc(C(=O)O)c2)cc1 | inactive
FC(F)(F)c1nnc(-c2ccccc2)nc1N1CCCC1 | inactive
COc1ccc(C2c3ccc(O)cc3Oc3ncn(CCCO)c(=N)c32)cc1OC (stereo unspecified) | inactive
O=C(O)CC1(CC(=O)NCc2ccncc2)CCCCC1 | inactive
Fc1ccc(C2=CC(c3ccc(Br)o3)n3ncnc3N2)cc1 (stereo unspecified) | 11.7 µM (active)
O=C(N/N=C/c1ccc(N2CCOCC2)cc1)c1ccccn1 | inactive
c1ccc(-c2cn3nc(-c4ccccc4)c(-c4ccccc4)nc3n2)cc1 | 23 µM (active)
O=C(Nc1ccc2c(c1)OCO2)N1CCCc2ccccc21 | inactive
Nc1ccc2c(O)cc(S(=O)(=O)O)cc2c1 | inactive
Cc1ccc(S(=O)(=O)/N=C/c2ccc(N(C)C)cc2)cc1 | inactive
COc1ccc(Cn2nnc3c(=O)[nH]c(C4CCCN(C(=O)c5ccccc5)C4)nc32)cc1 (stereo unspecified) | inactive
O=C(O)/C=C/c1ccccc1Oc1ccccc1 | inactive
NS(=O)(=O)c1cc(C(=O)NC2CCSc3ccccc32)ccc1Cl (stereo unspecified) | inactive
c1ccc2[nH]c3cc4ncnc4cc3nc2c1 | 11.7 µM (active)
Cc1cc2nc(SCCN3CCOCC3)[nH]c2cc1C | inactive
C=CCn1c(C)cc(-c2csc(NC(=O)CCc3nc4ccccc4c(=O)[nH]3)n2)c1C | inactive
O=C(CSc1nc2ccccc2[nH]1)Nc1cccc(S(=O)(=O)N2CCOCC2)c1 | inactive
